Please go through the items and note down their Cl.
Organism: Rattus norvegicus
Assay: Open TG-GATES - Regimen: Daily Repeat
Format: toxicity, organism-based, Sprague-Dawley
Parameters: regimen Daily Repeat, gender Male, age 6 weeks
Details: in vivo, po, 0 mg/kg, […], tissue Plasma, route gavage, dose level Control, time 14 day
Numbers only, in meq/L.

Some molecules with recorded Cl:
CN(C/C=C/C#CC(C)(C)C)Cc1cccc2ccccc12 [TERBINAFINE] :: 105
CC(S)C(=O)NCC(=O)O (stereo unspecified) [TIOPRONIN] :: 105
COc1ccc([C@@H]2Sc3ccccc3N(CCN(C)C)C(=O)[C@@H]2OC(C)=O)cc1 [DILTIAZEM] :: 105.6

Please give Cl, item by item, for the list that follows.
1. CCO [ALCOHOL]
2. Nc1ccc(Cc2ccc(N)cc2)cc1
3. CCCCC1C(=O)N(c2ccccc2)N(c2ccccc2)C1=O [PHENYLBUTAZONE]
4. CCCCNC(=O)NS(=O)(=O)c1ccc(C)cc1 [TOLBUTAMIDE]
5. CN(CCOc1ccc(CC2SC(=O)NC2=O)cc1)c1ccccn1.O=C(O)/C=C\C(=O)O (stereo unspecified) [ROSIGLITAZONE MALEATE]
6. CC(=O)[C@@]1(O)CC[C@H]2[C@@H]3C=C(Cl)C4=CC(=O)CC[C@]4(C)[C@H]3CC[C@@]21C [CHLORMADINONE]
7. O=c1ccc2ccccc2o1 [COUMARIN]
8. O=C(O)c1ccccc1Nc1ccccc1 [FENAMIC ACID]

Marked response:
[105.6, 104.6, 108, 104.2, 106, 107, 106.2, 105.2]

###

Organism: Rattus norvegicus
Experiment: Open TG-GATES - Regimen: Daily Repeat
Type: toxicity, organism-based, Sprague-Dawley
Design: regimen Daily Repeat, gender Male, age 6 weeks
Conditions: in vivo, po, 100 mg/kg, […], tissue Blood, route gavage, dose level Low, time 28 day
metric-name: MCH (pg)
Numbers only, in pg.

Some molecules with recorded MCH:
CC(S)C(=O)NCC(=O)O (centres undefined) :: 19.6
CC(=O)[C@@]1(O)CC[C@H]2[C@@H]3C=C(Cl)C4=CC(=O)CC[C@]4(C)[C@H]3CC[C@@]21C :: 19.2

Please give MCH, item by item, for the list that follows.
1. O=C(O)c1ccccc1Nc1ccccc1
2. CCCCNC(=O)NS(=O)(=O)c1ccc(C)cc1 [TOLBUTAMIDE]

Marked response:
19.4
18.8

###

Organism: Rattus norvegicus
Assay: Open TG-GATES - Regimen: Single
Assay type: toxicity, organism-based, Sprague-Dawley
Design: regimen Single, gender Male, age 6 weeks
Conditions: in vivo, po, 0 mg/kg, 3 h, tissue Kidney, route gavage, dose level Control
metric-name: KIDNEY_R (g)
Answers are plain numbers, in g.

Some compounds with recorded KIDNEY_R:
CCCCNC(=O)NS(=O)(=O)c1ccc(C)cc1 [TOLBUTAMIDE] :: 0.9
CN(C/C=C/C#CC(C)(C)C)Cc1cccc2ccccc12 :: 1
CC(=O)[C@@]1(O)CC[C@H]2[C@@H]3C=C(Cl)C4=CC(=O)CC[C@]4(C)[C@H]3CC[C@@]21C :: 1
COc1ccc([C@@H]2Sc3ccccc3N(CCN(C)C)C(=O)[C@@H]2OC(C)=O)cc1 :: 0.9

API: the following record is the query input.
Exam item: GET /values?readout=KIDNEY_R&item= "O=C(O)c1ccccc1Nc1ccccc1"
Marked response: 0.9

All figures here come from ChEMBL document CHEMBL3885861.
